- Test system: DU-145 prostate
- experiment_description: NCI-60 one-dose screen, 48 h
- experimental_conditions: 10 µM unless noted
Compounds without any hit were thinned out: in the full panel of roughly 83,000, 20% have a hit. The source made the active and inactive calls. How the source made its calls: active means growth percent below 10; inactive means the rest.
Output constraint: value belongs to active, inactive

Test call, this compound: CCOc1ccccc1NC(=O)c1cc2ccccc2cc1O
inactive

Test call, this compound: COC1/C=C/OC2(C)Oc3c(C)c(O)c4c(O)c(c(C=NOC(c5ccccc5)c5ccccc5)c(O)c4c3C2=O)NC(=O)/C(C)=C/C=C/C(C)C(O)C(C)C(O)C(C)C(OC(C)=O)C1C (centres undefined)
inactive

Test call, this compound: COc1cc(Nc2nc3ccccc3cc2C(=O)Nc2ccc(F)c(F)c2)cc(OC)c1OC
inactive

Test call, this compound: N#Cc1c(N)nnn1Cc1cc(=O)oc2ccc(O)cc12
inactive

Test call, this compound: O=c1ccc2nc(-c3ccccn3)nn(-c3ccccc3)c-2c1
inactive

Test call, this compound: CCOC(=O)C(=CCC(C)C)C(=O)OCC
inactive

Test call, this compound: O=C1/C(=C/c2ccccc2)CN(C(=O)C(Cl)Cl)C/C1=C\c1ccccc1
active

Test call, this compound: COc1ccc2c(c1)CC[C@@H]1[C@@H]2CC[C@]2(C)C3C(=CCC4C(=O)N(c5ccccc5)C(=O)C43)C[C@@H]12 (some centres undefined)
inactive

Test call, this compound: NC1=CC(=O)c2cccnc2C1=O
active

Test call, this compound: Cc1ccc2[nH]c(=S)[nH]c(=O)c2c1
inactive

Test call, this compound: CCOC(=O)CCCn1c(-c2ccccc2)cc(-c2ccccc2)c(C#N)c1=O
inactive

Test call, this compound: Cc1ccc(-c2nc(SCC(=O)c3ccc(C#N)cc3)[nH]c(=O)c2C#N)cc1
inactive

Test call, this compound: C=C1CCC2C3(C)COC(c4ccc(NC(C)=O)cc4)OC3CCC2(C)C1C/C=C1/C(=O)OCC1O (centres undefined)
inactive

Test call, this compound: O=C(CN1C(=O)S/C(=C\C(Cl)=C\c2ccccc2)C1=O)NCCCn1ccnc1
inactive

Test call, this compound: COc1cc2c(cc1OCCCOC1=C=C=C(c3ccc4c(c3)c3cc(-c5ccc(OCCCOc6cc7c(cc6OC)C(=O)N6CCC[C@H]6C=N7)cc5)ccc3n4S(=O)(=O)c3ccc(C)cc3)C=C1)N=C[C@@H]1CCCN1C2=O
active

Test call, this compound: COc1cc(CO)cc2cc3ccccc3nc12
inactive

Test call, this compound: COc1cc2nc3cc([N+](=O)[O-])ccc3c(NCCNCC(C)(C)O)c2cc1OC
active

Test call, this compound: Cn1cc(-c2csc(-c3c[nH]c4ccc(F)cc34)n2)c2cnccc21
active

Test call, this compound: Cc1c(C(C)(C)O)cn2ncnc(Oc3ccc(NC(=O)Nc4ccc(Cl)c(C(F)(F)F)c4)cc3)c12
inactive

Numbers sourced from PubChem BioAssay (NCI).
